system: SF-295; experiment: NCI tumour cell line growth inhibition, 48 h
Active and inactive are the calls of the source. No stated cut-off is given here; in the data, active = GI50 up to about 1.1 µM and inactive = higher.
outcome-measure: GI50

Reference set, count: 3
CCc1cc(Cc2cc(CC)c(NC(=O)C3=CC(=O)CC(c4ccc(OC)cc4)O3)c(CC)c2Cl)c(Cl)c(CC)c1NC(=O)C1=CC(=O)CC(c2ccc(OC)cc2)O1 (configuration not stated): 19.8 µM (inactive)
CC(C)[Si](CC1=CCCCC12C(=O)N(COCC[Si](C)(C)C)c1ccccc12)(C(C)C)C(C)C (configuration not stated): 31.1 µM (inactive)
Cc1ccc2c(c1C)C(=O)C1(Cc3cc4c(cc3C1=O)CCC4)C2 (configuration not stated): > 100 µM (inactive)

Task: Query (compound): CCCc1cc(=O)oc2c(C=O)c(O)cc(O)c12 ; field requested: GI50
Result: 29.9 µM (inactive)

Task: Bench note: what GI50 did CCC(=O)OC1=C(c2ccccc2)Sc2ccc(Cl)cc2-n2cccc21 show?
Result: 9.62 µM (inactive)

Task: Quick check: GI50 of COc1ccc(-c2cc(-c3ccco3)c(C#N)c(=O)[nH]2)cc1 ?
Result: 65 µM (inactive)

Task: So what's the measured GI50 for this one? Cn1c(=O)c2c(nc3n(C)c(=O)c4ccccc4n23)n(C)c1=O
Result: 22.4 µM (inactive)
